Attribution: patent US20090170750A1

# Tested System: human IGF-1 receptor (human) (UniProt P08069)
# Method Summary: competition with 125I-IGF-1 (SPA)
Metric Name: Human IGF-1 receptor binding relative to human insulin (%)

Observe how each entry below is paired with its result.
single-chain insulin PAK 1688011, connecting peptide VGLSSGK (from UniProt P01308 25-53; P01308 90-110) (ligand) : 0.1
single-chain insulin with connecting peptide RGSSGK (SEQ ID NO:114), no PAK number printed (from UniProt P01308 25-53; P01308 90-110) (ligand) : 0.5

(A) single-chain insulin PAK 1709, connecting peptide VGRSSGK (SEQ ID NO:105) (from UniProt P01308 25-53; P01308 90-110) (ligand)
(B) single-chain insulin PAK 1766, connecting peptide VGSSSGK (from UniProt P01308 25-53; P01308 90-110) (ligand)
(C) single-chain insulin PAK 1687033, connecting peptide VGSYSGK (from UniProt P01308 25-53; P01308 90-110) (ligand)
INPUT: Hi! Can you put these in order of Human IGF-1 receptor binding relative to human insulin, lowest number first? Lab note: final answer is the ordered label list.
OUTPUT: B, C, A

* * *

# Tested System: purified recombinant human insulin receptor-exon 11 (human) (UniProt P06213)
# Sequence (P06213 other isoform, or with tags, fused parts or gaps limits assumed, form in doubt): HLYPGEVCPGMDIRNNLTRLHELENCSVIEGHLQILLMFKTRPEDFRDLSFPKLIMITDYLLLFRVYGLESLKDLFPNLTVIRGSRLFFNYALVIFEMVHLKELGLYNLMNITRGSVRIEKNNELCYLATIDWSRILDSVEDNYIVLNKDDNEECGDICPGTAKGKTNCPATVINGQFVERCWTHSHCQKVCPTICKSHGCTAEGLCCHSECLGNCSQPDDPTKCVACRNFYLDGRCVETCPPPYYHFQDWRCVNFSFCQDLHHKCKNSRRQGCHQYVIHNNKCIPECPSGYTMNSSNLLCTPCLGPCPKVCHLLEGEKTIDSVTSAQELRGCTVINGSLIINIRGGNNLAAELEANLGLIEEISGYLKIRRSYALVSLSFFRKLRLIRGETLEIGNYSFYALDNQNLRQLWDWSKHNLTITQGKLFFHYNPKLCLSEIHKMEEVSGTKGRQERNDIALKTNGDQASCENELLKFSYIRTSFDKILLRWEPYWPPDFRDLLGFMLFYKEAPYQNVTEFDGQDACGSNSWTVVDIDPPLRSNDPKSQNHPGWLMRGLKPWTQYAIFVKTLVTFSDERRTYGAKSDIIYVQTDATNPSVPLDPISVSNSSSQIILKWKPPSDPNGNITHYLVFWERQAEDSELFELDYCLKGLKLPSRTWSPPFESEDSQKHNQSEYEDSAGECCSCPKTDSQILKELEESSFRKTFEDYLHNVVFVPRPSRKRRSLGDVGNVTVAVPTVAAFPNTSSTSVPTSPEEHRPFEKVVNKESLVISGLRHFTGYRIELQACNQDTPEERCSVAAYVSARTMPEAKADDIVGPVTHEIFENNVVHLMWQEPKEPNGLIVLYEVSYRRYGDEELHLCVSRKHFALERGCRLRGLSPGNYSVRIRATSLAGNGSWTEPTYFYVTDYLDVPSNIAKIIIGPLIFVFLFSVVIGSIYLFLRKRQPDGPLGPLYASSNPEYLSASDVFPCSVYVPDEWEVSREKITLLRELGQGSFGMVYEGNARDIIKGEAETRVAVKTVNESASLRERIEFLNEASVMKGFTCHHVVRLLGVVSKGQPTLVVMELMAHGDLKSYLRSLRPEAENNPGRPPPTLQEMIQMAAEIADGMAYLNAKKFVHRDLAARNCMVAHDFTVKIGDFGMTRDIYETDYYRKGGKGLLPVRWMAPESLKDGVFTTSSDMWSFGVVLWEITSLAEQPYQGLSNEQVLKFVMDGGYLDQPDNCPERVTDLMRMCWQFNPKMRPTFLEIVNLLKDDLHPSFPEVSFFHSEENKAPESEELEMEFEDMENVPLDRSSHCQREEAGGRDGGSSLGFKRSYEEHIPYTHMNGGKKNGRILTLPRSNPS
# Method Summary: competition with 125I-insulin (SPA)
Metric Name: IR, binding relative to human insulin (%)

single-chain insulin PAK 1835, connecting peptide TGLGKGQ [B29E_A18Q] (from UniProt P01308 25-53; P01308 90-110) (ligand) : 50

(1) single-chain insulin PAK 1791, connecting peptide HGLYSGK [A18Q_A21G] (from UniProt P01308 25-53; P01308 90-110) (ligand)
(2) single-chain insulin PAK 1875, connecting peptide VGLSSGQ [B28K_B29A_A18Q] (from UniProt P01308 25-53; P01308 90-110) (ligand)
(3) single-chain insulin PAK 1769027, connecting peptide LVGSSSGK [A18Q_A21G] (from UniProt P01308 25-53; P01308 90-110) (ligand)
(4) single-chain insulin PAK 1796, connecting peptide AWSGSGK [A18Q_A21G] (from UniProt P01308 25-53; P01308 90-110) (ligand)
INPUT: In this exercise, place the 4 substances in ascending sequence of their recorded IR, binding relative to human insulin. Reply with the item labels sorted in the order that was asked for.
OUTPUT: 2, 3, 4, 1

(1) single-chain insulin PAK 1789, connecting peptide VGLRSGK [A18Q_A21G] (from UniProt P01308 25-53; P01308 90-110) (ligand)
(2) single-chain insulin PAK 1884, connecting peptide VGLSSGQ [B29A_A8K_A18Q] (from UniProt P01308 25-53; P01308 90-110) (ligand)
INPUT: Between the two listed entries 1 and 2 , which has its IR, binding relative to human insulin at the higher number? Respond with the label that goes with your answer.
OUTPUT: 1

* * *

# Tested System: purified recombinant human insulin receptor-exon 11 (human) (UniProt P06213)
# Method Summary: competition with 125I-insulin (SPA)
Metric Name: IR, binding relative to human insulin (%)

(I) single-chain insulin PAK 1769013, connecting peptide QVGSSSGK [A18Q_A21G] (from UniProt P01308 25-53; P01308 90-110) (ligand)
(II) single-chain insulin PAK 1738, connecting peptide VGSSSGK [A18Q] (from UniProt P01308 25-53; P01308 90-110) (ligand)
(III) single-chain insulin PAK 1855, connecting peptide VGLYSGK [B28D_A18Q] (from UniProt P01308 25-53; P01308 90-110) (ligand)
INPUT: Rank order required: IR, binding relative to human insulin, descending. Answer by listing the labels in the requested order.
OUTPUT: III, II, I
(III: 221%, II: 89%, I: 33%)
